Procedure Text: Antimigratory activity against human Gli7 cells on matrix containing laminin after 24 hrs by 2-D migration assay
Type: functional, cell-based
Let's look at some compounds and their measured pKi.
Bear in mind: pKi is minus log10 of a mol/L concentration; give just that figure.

Data request: Tell me pKi reported for CC[P@@]1(=O)O[C@H]([C@H]2COC(C)(C)O2)[C@@H]2OC(C)(C)O[C@@H]2[C@@H]1O
Data returned: 5.98

Pending compound:
Data request: Tell me pKi reported for CC1(C)O[C@@H]2[C@H](O1)[C@@H](Nc1cccc3ccccc13)[P@](=O)(c1ccccc1)O[C@@H]2[C@H]1COC(C)(C)O1
Data returned: 7.00

###

Tested on: C6
Procedure Text: Antiproliferative activity against rat C6 cells after 48 to 72 hrs by MTT assay
Assay type: functional, cell-based
Lab note: anything with IC50 below 9 µM is marked satisfied; values at 9 µM or higher are marked not satisfied.

Data request: Hi there! Is IC50 for CC1(C)O[C@H]2[C@@H]([C@H]3COC(C)(C)O3)O[P@](=O)(c3ccccc3)[C@@H](OS(C)(=O)=O)[C@H]2O1 below 9 µM, do you know?
Data returned: satisfied

Data request: Hi there! Is IC50 for CC1(C)O[C@H]2[C@@H]([C@H]3COC(C)(C)O3)O[P@](=O)(c3ccccc3)[C@@H](O)[C@H]2O1 below 9 µM, do you know?
Data returned: satisfied

Data request: Hi there! Is IC50 for CC1(C)O[C@@H]2[C@H](O1)[C@@H](Nc1ccccc1)[P@](=O)(c1ccccc1)O[C@@H]2[C@H]1COC(C)(C)O1 below 9 µM, do you know?
Data returned: not satisfied

###

Let's look at some compounds and their measured IC50.
Procedure Text: Antiproliferative activity against human HuH7 cells after 48 to 72 hrs by MTT assay
Format: functional, cell-based
Measurement Conditions: Huh-7
Express it in µM; write the number only.

Below are worked cases with known answers.
Data request: Tell me IC50 reported for CC1(C)O[C@@H]2[C@H](O1)[C@@H](Nc1cccc3ccccc13)[P@](=O)(c1ccccc1)O[C@@H]2[C@H]1COC(C)(C)O1
Data returned: 6.87

Data request: Tell me IC50 reported for CC1(C)O[C@H]2[C@@H]([C@H]3COC(C)(C)O3)O[P@](=O)(c3ccccc3)[C@@H](OS(C)(=O)=O)[C@H]2O1
Data returned: 24

Pending compound:
Data request: Tell me IC50 reported for CC1(C)O[C@@H]2[C@H](O1)[C@@H](NCc1ccccc1)[P@](=O)(c1ccccc1)O[C@@H]2[C@H]1COC(C)(C)O1
Data returned: 23.8

###

Let's look at some molecules and their measured IC50.
Procedure Text: Antiproliferative activity against mouse B16F10 cells after 48 to 72 hrs by MTT assay
Format: functional, cell-based
Measurement Conditions: B16-F10
Express it in µM; write the number only.

Below are worked cases with known answers.
Data request: Tell me IC50 reported for CC1(C)O[C@H]2[C@@H]([C@H]3COC(C)(C)O3)O[P@](=O)(c3ccccc3)[C@@H](Oc3ccc([N+](=O)[O-])c([N+](=O)[O-])c3)[C@H]2O1
Data returned: 2.59

Data request: Tell me IC50 reported for CC1(C)O[C@@H]2[C@H](O1)[C@@H](O)[P@@](=O)(c1ccccc1)O[C@@H]2[C@H]1COC(C)(C)O1
Data returned: 10.4

Data request: Tell me IC50 reported for CC1(C)O[C@H]2[C@@H]([C@H]3COC(C)(C)O3)O[P@@](=O)(c3ccccc3)[C@@H](O)[C@H]2O1
Data returned: 10.2

Further cases:
Data request: Tell me IC50 reported for CC1(C)O[C@H]2[C@@H]([C@H]3COC(C)(C)O3)O[P@](=O)(c3ccccc3)[C@@H](OC(=O)c3ccccc3)[C@H]2O1
Data returned: 13.5
